Target: mu opiate receptor (MOR) (Rattus norvegicus)
Construct: from tissue; host or cells: striatum (membrane preparation)
Sequence (P33535 whole entry): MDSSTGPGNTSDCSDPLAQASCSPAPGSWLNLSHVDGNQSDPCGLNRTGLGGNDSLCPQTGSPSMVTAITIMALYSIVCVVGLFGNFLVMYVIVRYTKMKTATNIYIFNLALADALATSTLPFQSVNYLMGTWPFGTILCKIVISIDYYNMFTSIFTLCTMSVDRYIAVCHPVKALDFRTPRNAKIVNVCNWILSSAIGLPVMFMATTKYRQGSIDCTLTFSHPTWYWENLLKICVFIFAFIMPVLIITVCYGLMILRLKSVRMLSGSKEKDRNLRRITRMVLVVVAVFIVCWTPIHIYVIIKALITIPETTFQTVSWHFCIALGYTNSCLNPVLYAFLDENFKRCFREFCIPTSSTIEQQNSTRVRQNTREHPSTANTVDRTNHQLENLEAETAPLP
Type: biochemical
Conditions: [35S]GTPγS binding to Gαo in striatal membranes; compound 1 μM plus 1 μM β-funaltrexamine (MOR antagonist)
A collection of compounds and their measured Concentration of FLNA-Binding Compound as Agonist 1 μM + BFNA
Quick note: give the figure in %, leave out the unit.

Observe how each entry below is paired with its result.
- compound: "CC1CN(CC(O)COc2cccc(F)c2)CC(C)O1 (stereo not drawn)"
  units.text: "%"
  test.value: 107.1
- compound: "COc1ccc(S(=O)(=O)N2CCOC23CCN(S(=O)(=O)c2ccc(C(C)=O)cc2)CC3)cc1"
  units.text: "%"
  test.value: 80.1
- compound: "COc1cccc(OC)c1C(=O)CC1c2c(cc3c(c2OC)OCO3)CC[N+]1(C)C (stereo not drawn)"
  units.text: "%"
  test.value: 28.4
- compound: "COc1c2c(cc3c1C(CC(=O)Cc1ccccc1C)[N+](C)(C)CC3)OCO2 (stereo not drawn)"
  units.text: "%"
  test.value: 28.8
- compound: "CC1CCC(C(C)C)C(OCC(O)CN2CCCC2)C1 (stereo not drawn)"
  units.text: "%"
  test.value: 22.2

Which Concentration of FLNA-Binding Compound as Agonist 1 μM + BFNA reading was recorded for the compound Cc1cccc(OCC(O)CN2CC(C)OC(C)C2)c1 (stereo not drawn) ? 165.2

Quick one: CC1CCC(C(C)C)C(OCC(O)CN2CCCC2=O)C1 (stereo not drawn) 88.6

Quick one: CC(=O)c1ccc(S(=O)(=O)N2CCC3(CC2)NC(=O)CN3Cc2ccccc2)cc1 [Compound C0085M] 43.7

Quick one: COc1ccc(N2CCN(CC(O)COC3CC(C)CCC3C(C)C)CC2)c(OC)c1 (stereo not drawn) 122.4

Quick one: COc1c2c(cc3c1C(CC(=O)c1ccc(N4CCOCC4)cc1)[N+](C)(C)CC3)OCO2 (stereo not drawn) 72.0

Quick one: O=S(=O)(c1cccs1)N1CCC2(CC1)OCCN2S(=O)(=O)c1cccs1 [Compound C0141M] 47.9

Quick one: `N#Cc1ccc(S(=O)(=O)N2CCC3(CC2)OCCN3S(=O)(=O)c2ccc(C#N)cc2)cc1` 2.8

Quick one: CC1CCC(C(C)C)C(OCC(O)CN2CCc3ccccc3C2)C1 (stereo not drawn) 16.7

Quick one: CCN(CC)CC(O)COC1CC(C)CCC1C(C)C (stereo not drawn) 133.0

Quick one: OC(COc1cccc(F)c1)CN1CCc2ccccc2C1 (stereo not drawn) 33.5

Quick one: COc1ccc(CCC(=O)CC2c3c(cc4c(c3OC)OCO4)CC[N+]2(C)C)c(OC)c1 (stereo not drawn) 166.4

Quick one: COc1ccccc1CC(O)CC1c2c(cc3c(c2OC)OCO3)CC[N+]1(C)C (stereo not drawn) 15.6

Quick one: CC1CCC(C)C(OCC(O)CN2CC(C)OC(C)C2)C1 (stereo not drawn) 28.0
